# Assay Target: BChE from equine serum (Equus caballus)
# Assay Explanation: biochemical
# Condition Notes: mean ± SD of three experiments
Listed next: entries and their corresponding IC50.
Return type: number; implicit unit µM.

Solved entries:
COc1cc(O)c2c(c1Cc1ccc(O)cc1)CCc1cc(O)ccc1-2 [Compound 9, shancidin] : 16.7
COc1cc(O)c(Cc2ccc(O)cc2)c2ccc3c(Cc4ccc(O)cc4)c(O)ccc3c12 [Compound 12] : 2.3
COc1cc(O)cc2c1-c1ccc(Oc3c(O)cc(OC)c4c3ccc3cc(O)ccc34)cc1CC2 [Compound 14, blestrin D] : 8.1

Lab note: next compound to report on.
*Q* Bench note: what IC50 did COc1c(Cc2ccc(O)cc2)c(O)c(Cc2ccc(O)cc2)c2c1-c1ccc(O)cc1CC2 [Compound 11] show?
*A* 44.6

###

Listed next: entries and their corresponding Selectivity ratio.
# Assay Target: BChE from equine serum (Equus caballus, UniProt P81908)
# Sequence (P81908 whole entry): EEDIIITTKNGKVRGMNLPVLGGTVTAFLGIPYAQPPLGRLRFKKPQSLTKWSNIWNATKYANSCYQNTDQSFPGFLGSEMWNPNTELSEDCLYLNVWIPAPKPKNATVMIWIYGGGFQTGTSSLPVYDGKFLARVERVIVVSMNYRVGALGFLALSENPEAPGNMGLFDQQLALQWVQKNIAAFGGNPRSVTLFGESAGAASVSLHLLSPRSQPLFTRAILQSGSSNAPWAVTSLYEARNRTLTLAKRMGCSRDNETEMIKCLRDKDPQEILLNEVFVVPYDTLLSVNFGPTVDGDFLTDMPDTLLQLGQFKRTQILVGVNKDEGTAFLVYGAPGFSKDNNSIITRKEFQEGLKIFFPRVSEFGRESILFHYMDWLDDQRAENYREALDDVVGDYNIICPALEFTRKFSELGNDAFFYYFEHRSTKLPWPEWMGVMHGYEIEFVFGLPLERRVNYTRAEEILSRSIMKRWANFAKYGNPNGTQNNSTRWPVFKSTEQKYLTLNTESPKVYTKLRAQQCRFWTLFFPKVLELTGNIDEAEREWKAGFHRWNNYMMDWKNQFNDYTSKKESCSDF
# Assay Explanation: biochemical
# Assay type: biochemical

COc1cc(Oc2c(O)cc(OC)c3c2CCc2cc(O)ccc2-3)cc2c1-c1ccc(O)cc1CC2 : > 2.9
COc1cccc(CCc2cc(O)cc(OC)c2Cc2ccc(O)cc2)c1 : > 2.1
COc1cc(O)c(-c2c(O)cc(OC)c3c2CCc2cc(O)ccc2-3)c2c1-c1ccc(O)cc1CC2 : > 1.2
COc1c(O)cc2ccc3c(Cc4ccc(O)cc4)c(O)ccc3c2c1OC : > 13.1
COc1c(Cc2ccc(O)cc2)c(O)c(Cc2ccc(O)cc2)c2c1-c1ccc(O)cc1CC2 : > 1.2
COc1c(O)c(Cc2ccc(O)cc2)c2ccc3cc(O)ccc3c2c1OC : > 4.0
COc1cc(Oc2c(O)cc(OC)c3c2ccc2cc(O)ccc23)cc2c1-c1ccc(O)cc1CC2 : > 4.3
COc1cc(O)c(Cc2ccc(O)cc2)c2ccc3c(Cc4ccc(O)cc4)c(O)ccc3c12 : > 23.1
COc1cc(O)cc2c1-c1ccc(Oc3c(O)cc(OC)c4c3ccc3cc(O)ccc34)cc1CC2 : > 6.8
COc1cc(O)c2c(c1Cc1ccc(O)cc1)CCc1cc(O)ccc1-2 : > 4.3

*Q* Bench note: what Selectivity ratio did `COc1cc(O)c(Cc2ccc(O)cc2)c2ccc3cc(O)ccc3c12` show?
*A* > 34.7

*Q* Bench note: what Selectivity ratio did `COc1cccc(CCc2cc(OC)cc(O)c2Cc2ccc(O)cc2)c1` show?
*A* > 1.7

*Q* Bench note: what Selectivity ratio did COc1cc(C2Oc3cc4c(c(OC)c3C2CO)-c2ccc(O)cc2CC4)ccc1O (stereo not drawn) show?
*A* > 1.7

*Q* Bench note: what Selectivity ratio did `COc1c(Cc2ccc(O)cc2)c(O)cc2c1-c1ccc(O)cc1CC2` show?
*A* > 2.1

*Q* Bench note: what Selectivity ratio did `COc1ccc2c(ccc3c(Cc4ccc(O)cc4)c(O)cc(OC)c32)c1O` show?
*A* > 9.5

###

# Assay Target: UniProt P81908
# Assay Explanation: Kinetic characterization of BChE inhibition (Lineweaver–Burk plots, secondary plots)
# Assay type: biochemical, equine
# Condition Notes: Lineweaver–Burk plots
Quantity: Mode of BChE inhibition

Solved entries:
COc1c(O)cc2ccc3c(Cc4ccc(O)cc4)c(O)ccc3c2c1OC : mixed-type
COc1cc(O)c(Cc2ccc(O)cc2)c2ccc3c(Cc4ccc(O)cc4)c(O)ccc3c12 : non-competitive
COc1cc(O)c(Cc2ccc(O)cc2)c2ccc3cc(O)ccc3c12 : non-competitive
COc1cc(O)cc2c1-c1ccc(Oc3c(O)cc(OC)c4c3ccc3cc(O)ccc34)cc1CC2 : mixed-type

Lab note: next molecule to report on.
*Q* Bench note: what Mode of BChE inhibition did `COc1ccc2c(ccc3c(Cc4ccc(O)cc4)c(O)cc(OC)c32)c1O` show?
*A* mixed-type

Where these numbers come from: paper PMC9372051
